# credit: patent EP0326134A1

Exercise: for every item that follows, state its recorded TD50.
experiment: Side effects and CNS/behaviour: tremor (TD50), sedative and m-cholinomimetic effects; type: in vivo; settings: in vivo, toxic dose causing tremor in 50 % of the animals
Lab book: enter the figure in mg/kg, no units written.

*Q* Let me know recorded TD50 for Nc1c2c(nc3c1CCC3)CCCC2 [Verbindung 40, reference compound] , thanks.
*A* 23.2

*Q* Let me know recorded TD50 for Cc1nc2c(c(N)c1-c1ccccc1)CCC2 , thanks.
*A* 10

*Q* Let me know recorded TD50 for Nc1c2c(nc3ccccc13)CCCC2 [Verbindung 41, 2,3,4,5-Tetrahydro-9-amino-acridin, reference compound] , thanks.
*A* 10

*Q* Let me know recorded TD50 for CCNc1c(C)c(C)nc2c1CCC2 , thanks.
*A* 10

*Q* Let me know recorded TD50 for Cc1nc2c(c(N)c1C)CCC2 , thanks.
*A* 10

*Q* Let me know recorded TD50 for Nc1c2c(nc3c1CCC3)CCC2 , thanks.
*A* 15

*Q* Let me know recorded TD50 for CCc1c(C)nc2c(c1N)CCC2 , thanks.
*A* 10

*Q* Let me know recorded TD50 for CCc1nc2c(c(N)c1C)CCC2 , thanks.
*A* 19

*Q* Let me know recorded TD50 for Nc1c2c(nc3c1CCC3)CCCCC2 , thanks.
*A* 17

*Q* Let me know recorded TD50 for CCCc1c(C)nc2c(c1N)CCC2 , thanks.
*A* 10

*Q* Let me know recorded TD50 for CNc1c(C)c(C)nc2c1CCC2 , thanks.
*A* 12

----------
assay: Acute toxicity, single intraperitoneal injection, probit analysis (LD50); format: in vivo, Mäusen; conditions: mice, i.p.
metric-name: LD50 (mg/kg)
Lab book: enter the figure in mg/kg, no units written.

*Q* Let me know recorded LD50 for Cc1nc2c(c(N)c1C)CCC2 [Verbindung 18] , thanks.
*A* 16

*Q* Let me know recorded LD50 for CCc1nc2c(c(N)c1C)CCC2 [Verbindung 29] , thanks.
*A* 35

*Q* Let me know recorded LD50 for Cc1nc2c(c(N)c1C)CCC2 [Verbindung 7] , thanks.
*A* 20

*Q* Let me know recorded LD50 for Cc1nc2c(c(N)c1C)CCC2 [Verbindung 13] , thanks.
*A* 18

*Q* Let me know recorded LD50 for Cc1nc2c(c(N)c1C)CCC2 [Verbindung 6] , thanks.
*A* 35

*Q* Let me know recorded LD50 for Nc1c2c(nc3c1CCC3)CCCCC2 [Verbindung 39] , thanks.
*A* 50

*Q* Let me know recorded LD50 for Nc1c2c(nc3c1CCC3)CCC2 [Verbindung 37] , thanks.
*A* 38

*Q* Let me know recorded LD50 for Cc1nc2c(c(N)c1C)CCC2 [Verbindung 5] , thanks.
*A* 25

*Q* Let me know recorded LD50 for Cc1nc2c(c(N)c1C)CCC2 [Verbindung 10] , thanks.
*A* 15

*Q* Let me know recorded LD50 for CCc1nc2c(c(N)c1C)CCC2 [Verbindung 28] , thanks.
*A* 40

----------
Exercise: for every item that follows, state its recorded Verhältnis TD50 zu ED50.
assay: Side effects and CNS/behaviour: tremor (TD50), sedative and m-cholinomimetic effects; format: in vivo; conditions: ED50 = dose blocking the effect of Skopolamin in 50 % of the animals (passive avoidance, mice)
Could you keep your reply to the number by itself?

*Q* Let me know recorded Verhältnis TD50 zu ED50 for Cc1nc2c(c(N)c1C)CCC2 [Verbindung 5] , thanks.
*A* 13

*Q* Let me know recorded Verhältnis TD50 zu ED50 for Cc1nc2c(c(N)c1C)CCC2 [Verbindung 6] , thanks.
*A* 10

*Q* Let me know recorded Verhältnis TD50 zu ED50 for CCc1nc2c(c(N)c1C)CCC2 [Verbindung 30] , thanks.
*A* 11
